Origin of the recorded values: ChEMBL document CHEMBL3734651

TARGET OR TEST SYSTEM: Human immunodeficiency virus type 1 integrase (Human immunodeficiency virus 1, UniProt Q7ZJM1)
Sequence (Q7ZJM1 whole entry): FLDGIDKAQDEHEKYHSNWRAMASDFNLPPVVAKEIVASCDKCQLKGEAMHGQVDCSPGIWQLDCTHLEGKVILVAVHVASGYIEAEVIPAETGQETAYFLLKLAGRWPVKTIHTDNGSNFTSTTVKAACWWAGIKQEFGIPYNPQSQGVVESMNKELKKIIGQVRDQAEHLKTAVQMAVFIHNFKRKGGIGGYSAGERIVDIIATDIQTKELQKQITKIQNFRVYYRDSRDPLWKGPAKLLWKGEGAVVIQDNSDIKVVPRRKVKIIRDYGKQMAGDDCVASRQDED
PROTOCOL NOTES: Inhibition of recombinant HIV-1 integrase stand transfer activity expressed in Escherichia coli BL21(DE3) cells using 32P-labeled DNA substrate after 1 hr by densitometric analysis
READOUT KIND: IC50

Please review the following examples before continuing.
                              smiles_string   result
0  CCOC(=O)c1c(CC)nc(SCc2ccc(C(=O)/C=C(\O)C(=O)O)cc2)nc1-c1ccc(F)cc1   920 nM
1  CCOC(=O)c1c(CC)nc(SCc2ccc(C(=O)/C=C(\O)C(=O)O)cc2)nc1-c1ccccc1  2230 nM

We now examine a further compound.
*Q* Look up IC50 for this compound: `CCOC(=O)c1c(-c2ccccc2)nc(SCc2ccc(C(=O)/C=C(\O)C(=O)O)cc2)nc1-c1ccccc1`
*A* 6100 nM
